- Tested on: A549 NSCLC
- method: NCI tumour cell line growth inhibition, 48 h
measuredEndpoint: TGI

{"columns": ["compound", "measuredEndpoint", "result"],
 "data": [
  ["O=C(Nc1ccc(F)cc1F)c1cc(F)ccc1O", "TGI", "> 100 µM"],
  ["Cc1ccc2cc3c(cc(C)c4ccccc43)c3c2c1CC3", "TGI", "> 100 µM"],
  ["COc1cc([C@@H]2c3cc4c(c(O[C@@H]5O[C@H]6CO[C@@H](C)O[C@H]6[C@H](O)[C@@H]5O)c3C[C@H]3COC(=O)[C@@H]32)OCO4)cc(OC)c1O", "TGI", "> 100 µM"],
  ["OC1c2[nH]c3ccccc3c2CCN2CCCCC12 (stereo not drawn)", "TGI", "> 100 µM"],
  ["N#Cc1cnc(=O)n(C2CC(O)C(CO)O2)c1 (stereo not drawn)", "TGI", "> 100 µM"],
  ["Cc1ccc(-c2nc3nc(-c4ccc(Br)cc4)nc(N4CCCNCC4)c3o2)cc1", "TGI", "4.04 µM"],
  ["O=C1C(Br)=C(C2=CC(=P(c3ccccc3)(c3ccccc3)c3ccccc3)C=C2)C(=O)C(Br)=C1C1=CC(=P(c2ccccc2)(c2ccccc2)c2ccccc2)C=C1", "TGI", "> 100 µM"],
  ["C[C@]12CC[C@H]3[C@@H](CCC4=C[C@@H](N5CCCC5)CC[C@@]43C)[C@@H]1C/C(=C\\c1ccncc1)[C@@H]2O", "TGI", "29.1 µM"]
]}

###

- Tested on: HCT-15 colon
- method: NCI tumour cell line growth inhibition, 48 h; in the data active = GI50 below about 0.43 µM; inactive = the rest
Outcome codes: YES = active, NO = inactive

{"columns": ["molecule", "groupLabel"],
 "data": [
  ["C=C1C(=O)O[C@@H]2[C@@H]3O[C@@H](C[C@@H]13)[C@](C)(O)CC/C=C(\\C)CCC[C@H]2C", "NO"],
  ["CC(=O)Nc1c(Br)cc2c(c1Br)Cc1cc(Br)ccc1-2", "NO"],
  ["O=S(=O)(Nc1ccc(Cl)c(F)c1)c1ccc(-c2cnc(C3CC3)o2)cc1", "YES"],
  ["COc1ccc(C2=C(c3cn(C)c4ccccc34)C(=O)OC2)cc1OC", "NO"],
  ["CCN(Cc1ccccn1)c1ccc(CO)c(Cl)c1", "NO"],
  ["CC(C)(C)C(=O)OCCNc1nc(-c2ccccc2)nc2ccccc12", "NO"],
  ["Nc1cc(N)c2nc(-c3ccccc3)c(NCCc3ccc(Cl)c(Cl)c3)nc2c1", "NO"],
  ["CCOC(=O)CCC(NC(=O)c1ccc(Sc2nc3cc(N)cc(N)c3nc2-c2ccccc2)cc1)C(=O)OCC (centres undefined)", "NO"],
  ["COC(=O)C1=C(C(=O)OC)SC(=C(Cl)C(=S)Oc2ccccc2N)S1", "NO"]
]}

###

- Tested on: SK-OV-3 ovarian
- method: NCI tumour cell line growth inhibition, 48 h

{"columns": ["molecule", "GI50"],
 "data": [
  ["COC(=O)[C@@]1(C)CCC[C@]2(C)[C@H]3Cc4occc4[C@H](C)[C@@H]3CC[C@@]12O", "> 100 µM"],
  ["Nc1cc(N)c2nc(-c3ccccc3)c(NCCc3ccc(Cl)c(Cl)c3)nc2c1", "12.3 µM"],
  ["N#Cc1cnc(=O)n(C2CC(O)C(CO)O2)c1 (stereo not drawn)", "> 100 µM"],
  ["CC(C)N(Cc1c(F)cccc1F)c1ccc(CO)c(Cl)c1", "2.64 µM"],
  ["O=C(/C=C\\Sc1ccccn1)c1cccc(Br)c1", "> 100 µM"],
  ["COc1cccc(/C=C2\\COc3ccc(O)c(O)c3C2=O)c1", "3.38 µM"],
  ["COc1ccc(-c2nc3c(-c4ccccc4)nc(-c4ccccc4)cn3c2-c2ccc(OC)cc2)cc1", "82.5 µM"],
  ["Cc1ccc(-c2nc3nc(-c4ccc(Br)cc4)nc(N4CCCNCC4)c3o2)cc1", "17.5 µM"]
]}

###

- Test system: HOP-92 NSCLC
- method: NCI tumour cell line growth inhibition, 48 h
Each entry below carries its recorded TGI.
measuredEndpoint: TGI (µM)

{"columns": ["compound", "targetOrTestSystem", "operator", "numericReadout"],
 "data": [
  ["CCc1cccc(C)c1NC(=O)CCc1n[nH]c(=S)o1", "HOP-92 NSCLC", ">", 100],
  ["Cc1ccc(NCCN(C)C)c2c(=O)c3cc(O)ccc3oc12", "HOP-92 NSCLC", "=", 23.4],
  ["CC1=NN(c2cccc(Cl)c2)C2(C1=Cc1ccccc1)C(Cl)C(=O)N2c1nc2ccccc2s1 (stereo not drawn)", "HOP-92 NSCLC", "=", 31.6],
  ["CC(=O)Nc1c(Br)cc2c(c1Br)Cc1cc(Br)ccc1-2", "HOP-92 NSCLC", "=", 22.5],
  ["O=S(=O)(SCCCCSS(=O)(=O)c1ccc(Cl)cc1)c1ccc(Cl)cc1", "HOP-92 NSCLC", "=", 21],
  ["Cc1noc(C)c1-n1nc2ccc3nonc3c2n1", "HOP-92 NSCLC", ">", 86.4],
  ["COc1cc([C@@H]2c3cc4c(c(O[C@@H]5O[C@H]6CO[C@@H](C)O[C@H]6[C@H](O)[C@@H]5O)c3C[C@H]3COC(=O)[C@@H]32)OCO4)cc(OC)c1O", "HOP-92 NSCLC", ">", 100],
  ["COc1cc(O)cc2oc(-c3ccc(O)cc3)cc(=O)c12", "HOP-92 NSCLC", ">", 100]
]}

###

- Test system: OVCAR-8 ovarian
- method: NCI tumour cell line growth inhibition, 48 h; in the data active means GI50 below about 0.43 µM; inactive means the rest
Outcome codes: yes (1) (active), no (0) (inactive)

{"columns": ["molecule", "targetOrTestSystem", "groupLabel"],
 "data": [
  ["COC(=O)[C@@]1(C)CCC[C@]2(C)[C@H]3Cc4occc4[C@H](C)[C@@H]3CC[C@@]12O", "OVCAR-8 ovarian", "no (0)"],
  ["Nc1nc(/C=C\\c2ccc([N+](=O)[O-])s2)nc(N2CCOCC2)n1", "OVCAR-8 ovarian", "no (0)"],
  ["NCCNC1=CC(=O)c2nc3ccccc3c3ccnc1c23", "OVCAR-8 ovarian", "no (0)"],
  ["COc1cc(-c2nn(-c3ccc(NC(=O)NCCNS(=O)(=O)c4ccc(F)cc4)cc3)cc2-c2ccncc2)ccc1Cl", "OVCAR-8 ovarian", "no (0)"],
  ["C=CC(C)c1cccc(C=O)c1O (stereo not drawn)", "OVCAR-8 ovarian", "no (0)"],
  ["O=C(NC1CCCCC1)OCc1c(COC(=O)NC2CCCCC2)c(-c2ccc(Cl)c(Cl)c2)n2c1CCC2", "OVCAR-8 ovarian", "no (0)"],
  ["CN1C[C@@H](c2ccc(Cl)cc2)[C@]2(NC(=S)N(c3ccc(F)c(Cl)c3)C2=O)[C@@]12C(=O)NC1C=CC(Cl)=C[C@H]12 (stereo partly drawn)", "OVCAR-8 ovarian", "no (0)"],
  ["C/C=C/C1=CN2C(=O)c3cc(OC4OC(C)C(NC)C(C)(O)C4O)c(C)cc3N=C[C@@H]2C1 (stereo partly drawn)", "OVCAR-8 ovarian", "yes (1)"],
  ["CCn1nc(-c2ccc(C(=O)OC)cc2)nc2c(=O)n(C)c(=O)nc1-2", "OVCAR-8 ovarian", "yes (1)"],
  ["CC(C)N(Cc1c(F)cccc1F)c1ccc(CO)c(Cl)c1", "OVCAR-8 ovarian", "no (0)"],
  ["CC(C)(C)C(=O)OCCNc1nc(-c2ccccc2)nc2ccccc12", "OVCAR-8 ovarian", "no (0)"],
  ["O=C1CCC/C=C\\C[C@H]2C=CC(=O)/C2=C/C[C@H](CCc2cccc(C(F)(F)F)c2)O1", "OVCAR-8 ovarian", "no (0)"],
  ["CC(=O)Nc1c(Br)cc2c(c1Br)Cc1cc(Br)ccc1-2", "OVCAR-8 ovarian", "no (0)"]
]}

###

- Tested on: PC-3 prostate
- method: NCI tumour cell line growth inhibition, 48 h
Each entry below carries its recorded TGI.

{"columns": ["compound", "TGI"],
 "data": [
  ["C[C@]12CC[C@H]3[C@@H](CCC4=C[C@@H](N5CCCC5)CC[C@@]43C)[C@@H]1C/C(=C\\c1ccncc1)[C@@H]2O", "30.8 µM"],
  ["CC(CO)CCNc1ncnc2c1ncn2CCC#N (configuration not stated)", "> 100 µM"],
  ["CC12c3c4cccc3Oc3cc(N)cc(c31)Oc1cc(N)cc(c12)O4", "12.1 µM"],
  ["Nc1nc(N)c2ncn(-c3ccc(Br)cc3)c2n1", "> 65 µM"],
  ["Cc1ccc(-c2nc3cc(N4CCN(C)CC4)c(F)cc3[nH]2)cc1", "> 100 µM"],
  ["CC(=O)OCCn1c(Cc2ccc(C)cc2)nn(C(C)=O)c1=O", "> 100 µM"],
  ["Oc1ccc[n+](Cc2ccccc2)c1", "> 100 µM"]
]}
